- TEST SYSTEM: Prostaglandin G/H synthase 1 (Homo sapiens)
- Sequence (P23219 whole entry): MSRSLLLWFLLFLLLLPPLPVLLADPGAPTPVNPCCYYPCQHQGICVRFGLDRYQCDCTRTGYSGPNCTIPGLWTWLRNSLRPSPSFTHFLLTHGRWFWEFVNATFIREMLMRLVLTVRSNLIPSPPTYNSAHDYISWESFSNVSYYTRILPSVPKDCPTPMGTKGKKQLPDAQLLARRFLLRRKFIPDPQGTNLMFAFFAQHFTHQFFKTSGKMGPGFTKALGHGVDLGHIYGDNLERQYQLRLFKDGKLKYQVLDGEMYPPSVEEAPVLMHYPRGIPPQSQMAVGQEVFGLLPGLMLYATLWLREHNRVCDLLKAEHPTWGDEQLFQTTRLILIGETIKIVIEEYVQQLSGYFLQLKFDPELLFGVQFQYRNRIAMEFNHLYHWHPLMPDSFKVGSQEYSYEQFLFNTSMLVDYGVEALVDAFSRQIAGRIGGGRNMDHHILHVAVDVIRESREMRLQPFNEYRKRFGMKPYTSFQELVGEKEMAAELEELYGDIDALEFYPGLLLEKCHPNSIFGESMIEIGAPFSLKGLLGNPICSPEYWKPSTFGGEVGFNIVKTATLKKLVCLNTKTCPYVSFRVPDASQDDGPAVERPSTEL
- PROTOCOL NOTES: Inhibition of human recombinant COX1 expressed in Sf9 cells using arachidonic acid and ADHP incubated for 3 mins by fluorimetry
READOUT TYPE: IC50 (µM)
Provide the reading as a plain figure in µM.

-- ask Requested read-out: IC50. Entry: CC(C(=O)O)c1ccc(C[SiH](C)C)cc1 (stereo unspecified)
-- reply 26

---

- TEST SYSTEM: Prostaglandin G/H synthase 2 (Homo sapiens)
- Sequence (P35354 whole entry): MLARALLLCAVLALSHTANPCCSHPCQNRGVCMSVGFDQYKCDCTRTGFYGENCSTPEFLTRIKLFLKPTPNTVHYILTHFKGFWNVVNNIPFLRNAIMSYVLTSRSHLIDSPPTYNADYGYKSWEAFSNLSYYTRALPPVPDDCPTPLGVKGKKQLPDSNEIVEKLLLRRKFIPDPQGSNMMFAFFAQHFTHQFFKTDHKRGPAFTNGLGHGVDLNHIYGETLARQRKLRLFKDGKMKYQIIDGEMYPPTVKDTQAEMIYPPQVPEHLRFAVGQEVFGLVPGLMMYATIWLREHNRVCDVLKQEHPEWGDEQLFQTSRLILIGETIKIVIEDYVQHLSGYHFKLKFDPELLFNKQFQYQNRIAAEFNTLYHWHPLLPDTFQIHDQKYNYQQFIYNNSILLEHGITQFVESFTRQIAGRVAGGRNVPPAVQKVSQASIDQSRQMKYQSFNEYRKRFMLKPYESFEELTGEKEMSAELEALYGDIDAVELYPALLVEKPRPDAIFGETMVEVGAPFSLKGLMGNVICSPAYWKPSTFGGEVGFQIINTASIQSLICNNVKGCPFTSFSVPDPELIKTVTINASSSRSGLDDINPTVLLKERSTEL
- PROTOCOL NOTES: Inhibition of human recombinant COX2 expressed in Sf9 cells using arachidonic acid and ADHP incubated for 5 mins by fluorimetry
READOUT TYPE: pIC50
The value called pIC50 is obtained by taking minus log10 of the concentration in mol/L.

-- ask Requested read-out: pIC50. Entry: CC(C(=O)O)c1ccc(C[SiH](C)C)cc1 (stereo unspecified)
-- reply 5.08
